# System: TL strain of wild type fish
# TEST DETAILS: 24 hour MTC assay in the TL strain of wild type fish
# Format: in vivo, Zebrafish (Danio rerio)
# ASSAY CONDITIONS: 24-48 h.p.f.
MEASUREMENT TYPE: MTC (µM)
Numeric answer only, unit µM assumed.

COC[C@]1(OC)CC[C@H]2[C@@H]3CCC4=CC(=O)CCC4=C3[C@@H](c3ccc(/C=N/O)cc3)C[C@@]21C 10

Let us examine a further case.
Record CC1=CC(C)(C)Nc2ccc(-c3cccc(C#N)c3)cc21 . Reported MTC: 3

###

# System: TL strain of wild type fish
# TEST DETAILS: 24 hour MTC assay in the TL strain of wild type fish
# Type: in vivo, Zebrafish (Danio rerio)
# ASSAY CONDITIONS: 24-48 h.p.f.
# Procedure: Assays using Tg 043/050 uas:GFP+/−enhancer:gal4+/−×TL (“panretinal” enhancer) fish, incubated with various compounds (see Table below) from 24 h.p.f. to 5 d.p.f. (unless otherwise stated), then scoring the extent of the gut vessel plexus by microscopy. […]
MEASUREMENT TYPE: MTC (µM)
Numeric answer only, unit µM assumed.

COMPOUND	UNITS SYMBOL	MTC
CC#CC1(O)CCC2C3CCC4=CC(=O)CCC4=C3C(c3ccc(NC)cc3)CC21C (stereo not shown) [RU42633]	µM	30
CC#CC1(O)CCC2C3CCC4=CC(=O)CCC4=C3C(c3ccc(N)cc3)CC21C (stereo not shown) [RU42848]	µM	100
CC1(C)OC(=O)Nc2ccc(-c3cc(F)cc(Cl)c3)cc21 [Wyeth 4g]	µM	3
CC1(C)OC(=O)Nc2ccc(-c3ccc(F)c(C#N)c3)cc21 [Wyeth 6]	µM	100
CN(C)c1ccc(C2CC3(C)C(CCC3(O)C#CCO)C3CCC4=CC(=O)CCC4=C23)cc1 (stereo not shown) [RU42698]	µM	100

Let us examine a further case.
Record CC1(C)OC(=O)Nc2ccc(-c3cc(F)cc(C#N)c3)cc21 [Wyeth 4h] . Reported MTC: 30
